Target of assay: HLA-A*02:19
Experiment notes: IEDB peptide-MHC binding, purified MHC/direct/fluorescence; filed as Kd, often an IC50 or EC50 that approximates it; bounds were set here for any values at or beyond the usual limits of such assays
Reported conditions: source organism: Vibrio vulnificus CMCP6
Experimental endpoint: Kd

[in] Would you kindly share the measured Kd for SVMSTFFWE ?
[out] ≥ 20 µM

###

Target of assay: HLA-B*18:01
Experiment notes: IEDB peptide-MHC binding, purified MHC/competitive/fluorescence; filed as Kd, often an IC50 or EC50 that approximates it; bounds were set here for any values at or beyond the usual limits of such assays
Reported conditions: source organism: Human immunodeficiency virus 1
Experimental endpoint: pKd
One number for each entry, as −log10 of the molar value.

[in] Would you kindly share the measured pKd for KSLFNTIAVLY ?
[out] 6.58
